tested system: T1, Human CD3eg linker (human)
T1 construct: Single-chain construct; also called recombinant human CD3
T1 chain: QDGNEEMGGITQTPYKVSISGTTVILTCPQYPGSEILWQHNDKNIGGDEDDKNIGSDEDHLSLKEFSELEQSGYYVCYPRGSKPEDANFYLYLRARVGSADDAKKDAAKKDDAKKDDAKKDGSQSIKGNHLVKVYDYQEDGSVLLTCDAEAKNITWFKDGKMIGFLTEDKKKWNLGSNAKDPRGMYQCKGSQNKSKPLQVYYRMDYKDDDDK
method notes: SPR; fold vs parent H183/L072
fold change of affinity: recorded values
Supply the numeric figure in fold, leaving out any unit text.

H183/L072 VL S52L (antibody, name in Kabat numbering, V domains shown) VH: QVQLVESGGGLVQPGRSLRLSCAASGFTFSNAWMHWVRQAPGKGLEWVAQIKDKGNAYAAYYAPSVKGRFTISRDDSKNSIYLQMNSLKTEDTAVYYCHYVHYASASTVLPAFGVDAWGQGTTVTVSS VL: DIVMTQSPLSLPVTPGEPASISCQASQELVHMNRNTYLHWYQQKPGQAPRLLIYKVLNRFPGVPDRFSGSGSGTDFTLKISRVEAEDVGVYYCAQGTSVPFTFGQGTKLEIK    1.6

Now for a further binder.
In plain terms, H183/L072 VL P56K (antibody, name in Kabat numbering, V domains shown) VH: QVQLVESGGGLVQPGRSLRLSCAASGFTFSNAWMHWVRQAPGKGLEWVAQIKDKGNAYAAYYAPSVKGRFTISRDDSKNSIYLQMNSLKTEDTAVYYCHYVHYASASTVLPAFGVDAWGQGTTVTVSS VL: DIVMTQSPLSLPVTPGEPASISCQASQELVHMNRNTYLHWYQQKPGQAPRLLIYKVSNRFKGVPDRFSGSGSGTDFTLKISRVEAEDVGVYYCAQGTSVPFTFGQGTKLEIK has a documented fold change of affinity of 5.6
